The following binders are shown together with reported Signal (FLU) values.
Tested target: T1, human DR3 (TNFRSF25) expressed on cells (human, UniProt Q93038 25-417)
T1 sequence: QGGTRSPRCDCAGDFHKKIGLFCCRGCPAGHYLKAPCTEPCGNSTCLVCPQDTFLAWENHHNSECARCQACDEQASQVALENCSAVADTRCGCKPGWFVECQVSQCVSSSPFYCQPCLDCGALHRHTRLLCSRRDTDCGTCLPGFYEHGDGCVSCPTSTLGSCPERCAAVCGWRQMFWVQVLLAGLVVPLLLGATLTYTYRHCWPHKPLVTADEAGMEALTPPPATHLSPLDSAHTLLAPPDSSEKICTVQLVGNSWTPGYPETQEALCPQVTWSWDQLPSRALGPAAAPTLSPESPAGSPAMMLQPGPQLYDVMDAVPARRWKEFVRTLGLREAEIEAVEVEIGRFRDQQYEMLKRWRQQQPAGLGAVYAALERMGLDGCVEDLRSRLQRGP
Method description: cell-based or functional assay

{"columns": ["Binder", "Signal (FLU)"],
 "data": [
  ["VHg6/VLg2 (antibody, human IgG1, V domains shown, human IgG1) VH: QVQLQQSGGGLVQPGGSLRLSCAASGFTFSSYAMSWVRQAPGKGLEWVATISDGDSYSYFPDSVKDRFTISRDNARNSLYLQMNSLRAEDTAVYYCARDRIYGSVQYYAMDYWGRGTLVTVSS VL: DIQLTQSPSSLSASVGDRVTITCRASESVEFSGTSLMQWYQQKAGLAPKLLIYAASNVESGVPSRFSGSGSGTDFTLTISSLQPEDFGTYYCQQSRKLPYTFGQGTRLEIK", "2.44e+06"],
  ["VHg2/VLg1 (antibody, human IgG1, V domains shown) VH: QMQLVQSGGGLVKPGGSLRLSCAASGFTFSSYAMSWIRQAPGKGLEWVSTISDGDSYSYFPDSVKDRFTISRDNAKNSLYLQMNSLRAEDTAVYYCTRDRIYGSVQYYAMDYWGRGTLVTVSS VL: DVVMTQSPDSLAVSLGERATINCRASESVEFSGTSLMQWYQQKPGQPPKLLIYAASNVESGVPDRFSGSGSGTDFTLTISSLQAEDVVVYYCQQSRKLPYTFGGGTKVEIK", 402000],
  ["VHg3/VLg2 (antibody, human IgG1, V domains shown) VH: EVQLVQSGGGLVKPGGSLRLSCAASGFKFSSYAMSWVRQAPGKGLEWLSTISDGDSYSYFPDSVKDRFIISRDNAKNSLYLQMNSLRVEDTGVYYCARDRIYGSVQYYAMDYWGQGTLVTVSS VL: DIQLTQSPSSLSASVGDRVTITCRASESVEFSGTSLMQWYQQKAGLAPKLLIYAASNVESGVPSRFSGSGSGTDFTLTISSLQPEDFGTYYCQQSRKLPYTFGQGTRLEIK", "2.23e+06"],
  ["VHg9/VLg11 (antibody, human IgG1, V domains shown, human IgG1) VH: EVQLVESGGGLVKPGGSLRLSCAASGFTFSSYAMSWVRQAPGKGLEWVSTISDGDSYSYFPDSVKDRFTISRDNAKNSLYLQMNSLRAEDTAVYYCARDRIYGSVQYYAMDYWGQGTLVTVSS VL: DIVMTQSPDSLAVSLGERATINCRASESVEFSGTSLMQWYQQKPGQPPKLLIYAASNVESGVPDRFSGSGSGTDFTLTISSLQAEDVAVYYCQQSRKLPYTFGQGTKLEIK", "3.27e+06"],
  ["VHg5/VLg1 (antibody, human IgG1, V domains shown) VH: QVQLQQSGGGLVQAGGSLRLSCAASGFTFTSYAMSWVRQAPGKGLEWVATISDGDSYSYFPDSVKDRFIISRDNAKNSLFLQMNSLRAEDTAVYYCARDRIYGSVQYYAMDYWGRGTLVTVSS VL: DVVMTQSPDSLAVSLGERATINCRASESVEFSGTSLMQWYQQKPGQPPKLLIYAASNVESGVPDRFSGSGSGTDFTLTISSLQAEDVVVYYCQQSRKLPYTFGGGTKVEIK", 410000]
]}

These entries and their values trace back to patent WO2025083273A1.
